Data origin: patent US20210403506A1

- TARGET OF ASSAY: T1, human Chemokine like receptor 1 (human, UniProt Q99788 1-373)
- T1 sequence (looked up): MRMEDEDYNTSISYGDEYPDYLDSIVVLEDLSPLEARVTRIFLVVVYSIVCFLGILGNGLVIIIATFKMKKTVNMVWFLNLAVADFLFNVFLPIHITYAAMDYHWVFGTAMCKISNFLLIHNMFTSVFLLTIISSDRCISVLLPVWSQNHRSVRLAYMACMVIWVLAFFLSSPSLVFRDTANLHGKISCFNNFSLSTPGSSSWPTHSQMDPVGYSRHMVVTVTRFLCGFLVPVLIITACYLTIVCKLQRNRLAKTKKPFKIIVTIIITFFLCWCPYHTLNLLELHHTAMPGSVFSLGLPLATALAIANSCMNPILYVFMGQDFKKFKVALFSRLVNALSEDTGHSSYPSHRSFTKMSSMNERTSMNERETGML
- TEST SUMMARY: cell-based or functional assay
Square brackets hold non-standard residues; d marks the D form. Primed or numbered codes have the meaning given here. Ends that are not written are not given here. Pro(4Ph)″ = 4-phenylproline (Pro(4-phenyl)); 1Nal = N[C@@H](Cc1cccc2ccccc12)C(=O)O; 2Nal = N[C@@H](Cc1ccc2ccccc2c1)C(=O)O; dNMeY = CN[C@H](Cc1ccc(O)cc1)C(=O)O; Hyp = O=C(O)[C@@H]1C[C@@H](O)CN1; Tic = O=C(O)[C@@H]1Cc2ccccc2CN1; NMeL = CN[C@@H](CC(C)C)C(=O)O; NMeS = CN[C@@H](CO)C(=O)O; Thz = O=C(O)[C@@H]1CSCN1; dTi1c = not defined here; Aze = O=C(O)[C@@H]1CCN1
QUANTITY KIND: EC50 (µM), activation of Tango CMKLR1-bla U2OS cells

INSERT INTO assay_data (binder, val) VALUES
  ('[dNMeY]FLP[dS]QF[dA][dTi1c]S-OH (reading uncertain; also: printed as (D-NMe-Tyr)-Phe-Leu-Pro-(D-Ser)-Gln-Phe-(D-Ala)-(D-Ti1c)-Ser) [YW-154]', 0.034),
  ('[dNMeY]F[NMeL][Thz][dS]Q[1Nal][dA][Tic][NMeS]-OH (N-terminus assumed; SMILES CN[C@H](Cc1ccc(O)cc1)C(=O)N[C@@H](Cc1ccccc1)C(=O)N(C)[C@@H](CC(C)C)C(=O)N1CSC[C@H]1C(=O)N[C@H](CO)C(=O)N[C@@H](CCC(N)=O)C(=O)N[C@@H](Cc1cccc2ccccc12)C(=O)N[C@H](C)C(=O)N1Cc2ccccc2C[C@H]1C(=O)N(C)[C@@H](CO)C(=O)O) [YW-142]', 0.0009),
  ('[dY]F[NMeL][Hyp][dS]QF[dA][Tic]S [YW-198]', 0.0053),
  ('phenethylcarbamothioyl-[dY]FLP[dS]QF[dA][Tic]S-OH [YW-73]', 0.028),
  ('[dY]FL[Aze][dS]QF[dA][Tic]S-OH (N-terminus assumed; SMILES CC(C)C[C@H](NC(=O)[C@H](Cc1ccccc1)NC(=O)[C@H](N)Cc1ccc(O)cc1)C(=O)N1CC[C@H]1C(=O)N[C@H](CO)C(=O)N[C@@H](CCC(N)=O)C(=O)N[C@@H](Cc1ccccc1)C(=O)N[C@H](C)C(=O)N1Cc2ccccc2C[C@H]1C(=O)N[C@@H](CO)C(=O)O) [YW-115]', 0.19),
  ('[dY]FLP[dS]QF[dA][Pro(4Ph)″]S-OH [YW-92]', 1),
  ('[dNMeY]F[NMeL]P[dS]Q[2Nal][dA][Tic][NMeS] (not fully specified (residue 4); printed as (NMe-D-Tyr)-Phe-(NMe-Leu)-Pro(tran-4F)-(D-Ser)-Gln-(Nal-2)-(D-Ala)-Tic-(NMe-Ser)) [YW-220]', 0.00067);
